Reference source for all entries: ChEMBL document CHEMBL1124998

# Organism: Rattus norvegicus
# PROTOCOL DETAILS: Activity was determined by inhibition of glutamate stimulated accumulation of cyclic GMP in neonatal rat cerebral slices.
# Assay type: functional
PROPERTY NAME: IC50 (µM)
Give bare numbers, in µM.

Count: 3. Required value per item: IC50.
1. O=C(O)c1cc(=O)c2ccccc2[nH]1 [TRANSTORINE]
2. O=C(O)CCc1c(C(=O)O)[nH]c2cc(Cl)cc(Cl)c12
3. O=C(O)c1cc(O)c2ccc(Cl)cc2n1

[167, 5, 8]

Return reported IC50; argument: O=C(O)c1cc(O)c2c(Cl)cc(Cl)cc2n1 2.5

---

# SUBJECT OF TEST: Glutamate NMDA receptor (Rattus norvegicus) (UniProt P35439+Q00959+Q00960+Q00961+Q62645+Q8VHN2+Q9R1M7)
# PROTOCOL DETAILS: Selectivity ratio for CPP and gly NMDA binding
# Type: protein-complex assay
PROPERTY NAME: Ratio
One number for each entry.

Some entries whose results are on file:
Return reported Ratio; argument: O=C(O)c1cc(O)c2ccc(Cl)cc2n1 405

Return reported Ratio; argument: O=C(O)c1cc(O)c2c(Cl)cc(Cl)cc2n1 150

Return reported Ratio; argument: O=C(O)CCc1c(C(=O)O)[nH]c2cccc(Cl)c12 10

Return reported Ratio; argument: O=C(O)CCc1c(C(=O)O)[nH]c2cc(Cl)ccc12 105

Count: 2. Required value per item: Ratio.
1. O=C(O)c1cc2ccccc2[nH]1
2. O=C(O)CCc1c(C(=O)O)[nH]c2ccc(Cl)cc12

[40, 1.8]

Count: 2. Required value per item: Ratio.
1. O=C(O)CCc1c(C(=O)O)[nH]c2cc(Cl)cc(Cl)c12
2. O=C(O)CCc1c(C(=O)O)[nH]c2ccccc12

2550
1

---

# SUBJECT OF TEST: Glutamate NMDA receptor
# PROTOCOL DETAILS: Activity against rat cortical and hippocampal membrane N-methyl-D-aspartate glutamate receptor 1/2A/2B/2C/2D using [3H]CPP
# Assay type: tissue-based, Hippocampus
Kindly supply the reported IC50 values for the records listed here.
One number for each entry, in µM.

Count: 5. Required value per item: IC50.
1. O=C(O)CCc1c(C(=O)O)[nH]c2ccccc12
2. O=C(O)c1cc(O)c2ccc(Cl)cc2n1
3. O=C(O)CCc1c(C(=O)O)[nH]c2ccc(Cl)cc12
4. O=C(O)CCc1c(C(=O)O)[nH]c2cc(Cl)cc(Cl)c12
5. O=C(O)CCc1c(C(=O)O)[nH]c2cccc(Cl)c12

1: 34; 2: 162; 3: 25; 4: 358; 5: 59

Count: 3. Required value per item: IC50.
1. O=C(O)c1cc(O)c2c(Cl)cc(Cl)cc2n1
2. O=C(O)CCc1c(C(=O)O)[nH]c2cc(Cl)ccc12
3. O=C(O)c1cc2ccccc2[nH]1

12
283
4200

---

# SUBJECT OF TEST: Glutamate NMDA receptor
# PROTOCOL DETAILS: Activity against rat cortical and hippocampal membrane strychnine-insensitive N-methyl-D-aspartate glutamate receptor 1 using [3H]-gly
# Format: tissue-based, Hippocampus
pIC50: −log10 of the molar value.
Records here are stratified by pIC50; strata: bin 1: < 5; bin 2: ≥ 5 and < 6; bin 3: ≥ 6

Sample answers from the record:
Class? Entry: O=C(O)c1cc(O)c2c(Cl)cc(Cl)cc2n1 bin 3

Class? Entry: O=C(O)CCc1c(C(=O)O)[nH]c2cc(Cl)ccc12 bin 2

With those in mind, consider the next molecule.
Class? Entry: O=C(O)CCc1c(C(=O)O)[nH]c2c(Cl)cccc12 bin 1
